# TARGET: Sodium-dependent dopamine transporter (Homo sapiens)
# ASSAY COMMENT: Displacement of [3H]WIN-35428 from human DAT expressed in CHO cells
# Type: cell-based
# EXPERIMENTAL SETUP: concentration not given here
In this section we review reported inhibition values for a set of compounds.
Could you give me the number in %? Just the number is fine.

{"columns": ["SMILES INPUT", "UNIT NAME", "inhibition"],
 "data": [
  ["CNC[C@@H](O)[C@H](c1cccc(F)c1)n1ccc2cccc(Cl)c21", "%", 0],
  ["CNC[C@@H](O)[C@H](c1ccc(C)cc1)n1ccc2ccccc21", "%", 0],
  ["CNC[C@@H](O)[C@H](c1cccc(F)c1)n1ccc2ccc(F)cc21", "%", 15],
  ["CNC[C@@H](O)[C@H](c1ccccc1Cl)n1ccc2ccccc21", "%", 7],
  ["CNC[C@@H](O)[C@H](c1cccc(F)c1)n1ccc2c(C)cccc21", "%", 4]
]}

# ---- query compound ----
inhibition recorded for this compound, CNC[C@@H](O)[C@H](c1cccc(F)c1)n1ccc2cccc(C)c21 , is 7

====

Notes on pIC50 obtained with Sodium-dependent serotonin transporter (Homo sapiens, UniProt P31645).
Sequence (P31645 whole entry): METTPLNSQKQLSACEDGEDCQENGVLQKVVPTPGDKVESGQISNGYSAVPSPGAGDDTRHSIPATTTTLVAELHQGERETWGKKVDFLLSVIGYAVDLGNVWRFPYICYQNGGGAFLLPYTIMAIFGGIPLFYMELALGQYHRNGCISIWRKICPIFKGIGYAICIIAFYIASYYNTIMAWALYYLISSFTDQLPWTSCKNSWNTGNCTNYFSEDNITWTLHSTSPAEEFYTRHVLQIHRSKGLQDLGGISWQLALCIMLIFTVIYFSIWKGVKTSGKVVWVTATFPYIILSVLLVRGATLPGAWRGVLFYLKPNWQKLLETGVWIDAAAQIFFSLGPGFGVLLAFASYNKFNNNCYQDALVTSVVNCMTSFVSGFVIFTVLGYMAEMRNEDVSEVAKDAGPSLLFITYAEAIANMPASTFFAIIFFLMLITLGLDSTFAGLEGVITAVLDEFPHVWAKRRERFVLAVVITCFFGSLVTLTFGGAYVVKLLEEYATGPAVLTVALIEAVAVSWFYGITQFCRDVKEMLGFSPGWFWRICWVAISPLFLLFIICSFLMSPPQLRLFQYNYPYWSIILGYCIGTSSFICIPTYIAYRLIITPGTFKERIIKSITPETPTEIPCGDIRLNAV
Please note pIC50 is a logarithmic value: minus log10 of concentration in mol/L. Answer with that number alone.

{"columns": ["SMILES INPUT", "TARGET", "pIC50"],
 "data": [
  ["CNC[C@@H](O)[C@H](c1ccccc1F)n1ccc2ccccc21", "Sodium-dependent serotonin transporter (Homo sapiens, UniProt P31645)", 6.33],
  ["CNC[C@@H](O)[C@H](c1cccc(F)c1)n1ccc2cccc(C)c21", "Sodium-dependent serotonin transporter (Homo sapiens, UniProt P31645)", 6.28],
  ["CNC[C@@H](O)[C@H](c1cccc(F)c1)n1ccc2c(Br)cccc21", "Sodium-dependent serotonin transporter (Homo sapiens, UniProt P31645)", 6.68],
  ["CNC[C@@H](O)[C@H](c1cccc(F)c1)n1ccc2cc(C)ccc21", "Sodium-dependent serotonin transporter (Homo sapiens, UniProt P31645)", 7.32],
  ["CNC[C@@H](O)[C@H](c1ccccc1Cl)n1ccc2ccccc21", "Sodium-dependent serotonin transporter (Homo sapiens, UniProt P31645)", 5.88]
]}

pIC50 recorded for this compound, CCc1cn([C@@H](c2cccc(F)c2)[C@H](O)CNC)c2ccccc12 , is 6.08

pIC50 recorded for this compound, CNC[C@@H](O)[C@H](c1cccc(Br)c1)n1ccc2ccccc21 , is 6.26

pIC50 recorded for this compound, CNC[C@@H](O)[C@H](c1ccc(F)cc1)n1ccc2ccccc21 , is 5.86

pIC50 recorded for this compound, CNC[C@@H](O)[C@H](c1cccc(F)c1)n1ccc2ccc(Cl)cc21 , is 6.06

pIC50 recorded for this compound, CNC[C@@H](O)[C@H](c1cccc(F)c1)n1ccc2c(F)cccc21 , is 6.38

pIC50 recorded for this compound, CNC[C@@H](O)[C@H](c1cccc(F)c1)n1ccc2ccccc21 , is 6.36

====

# Organism: Homo sapiens
# ASSAY COMMENT: Selectivity ratio, IC50 for human SERT to IC50 for human NET
OBSERVABLE: Ratio IC50

Solved cases below.
{"columns": ["SMILES INPUT", "Ratio IC50"],
 "data": [
  ["CNC[C@@H](O)[C@H](c1cccc(C)c1)n1ccc2ccccc21", 8],
  ["CNC[C@@H](O)[C@H](c1ccccc1C)n1ccc2ccccc21", 1],
  ["CNCC[C@H](c1cccc(F)c1)n1ccc2ccccc21", 0.2],
  ["CNC[C@@H](O)[C@H](c1cccc(F)c1)n1ccc2c(F)cccc21", 26],
  ["CNC[C@@H](O)[C@H](c1cccc(F)c1)n1ccc2cccc(Cl)c21", 2]
]}

# ---- query compound ----
Ratio IC50 recorded for this compound, CNC[C@@H](O)[C@H](c1cccc(F)c1)n1cc(C)c2ccccc21 , is 86
